Just for reference, PubChem BioAssay AID1963837 is where these values come from.

Entries and their IC50
Test system: 843126-344-R-J1-PDC complex spheroid viability
Assay: Anticancer human tumor 843126-344-R-J1-PDC patient-derived melanoma cell line growth inhibition [POLQ]
Details: curve of first compound; second compound 10 µM
ASSAY_READOUT: IC50

[[record]]
compound = "CC1COCCN1c1cc(C2(S(C)(=N)=O)CC2)nc(-c2ccnc3[nH]ccc23)n1 (stereo not drawn) + COC1C(OC(N)=O)C(O)C(Oc2ccc3c(O)c(NC(=O)c4ccc(O)c(CC=C(C)C)c4)c(=O)oc3c2C)OC1(C)C"
target_or_test_system = "843126-344-R-J1-PDC complex spheroid viability"
assay_readout = "IC50"
reported_measurement = "9.69 µM"

[[record]]
compound = "CCc1cc2c(N3CCc4c(cc(Cn5ccnc5)cc4-c4cn(C)nc4C(F)(F)F)C3=O)ccnc2c(OC)n1 + COC1C(OC(N)=O)C(O)C(Oc2ccc3c(O)c(NC(=O)c4ccc(O)c(CC=C(C)C)c4)c(=O)oc3c2C)OC1(C)C"
target_or_test_system = "843126-344-R-J1-PDC complex spheroid viability"
assay_readout = "IC50"
reported_measurement = "> 10 µM"

[[record]]
compound = "CC[C@@]1(O)C(=O)OCc2c1cc1n(c2=O)Cc2cc3c(CN(C)C)c(O)ccc3nc2-1 + COC1C(OC(N)=O)C(O)C(Oc2ccc3c(O)c(NC(=O)c4ccc(O)c(CC=C(C)C)c4)c(=O)oc3c2C)OC1(C)C"
target_or_test_system = "843126-344-R-J1-PDC complex spheroid viability"
assay_readout = "IC50"
reported_measurement = "> 0.1 µM"


----------
Test system: 843126-344-R-J1-PDC complex spheroid viability
Assay: Anticancer human tumor 843126-344-R-J1-PDC cell line growth inhibition [POLQ];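 on viability, T/C: spheroids exposed to drugs for seven days before readout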
Settings: second compound 0.316 µM; first compound 3.16 µM; stronger effect = lower value
ASSAY_READOUT: viability, T/C

[[record]]
compound = "COc1ccc([C@@H](O)c2cc(-c3ncnc4cc(N5CCOCC5)ccc34)c(F)cc2Cl)nn1 + Cc1cccc(N(C)C(=O)C2C(O)CCN2c2nc(C)cc(C(F)(F)F)c2C#N)c1"
assay_readout = "viability, T/C"
reported_measurement = "76.9%"

[[record]]
compound = "CCCS(=O)(=O)Nc1ccc(F)c(C(=O)c2c[nH]c3ncc(-c4ccc(Cl)cc4)cc23)c1F + COC1C(OC(N)=O)C(O)C(Oc2ccc3c(O)c(NC(=O)c4ccc(O)c(CC=C(C)C)c4)c(=O)oc3c2C)OC1(C)C"
assay_readout = "viability, T/C"
reported_measurement = "71.7%"

[[record]]
compound = "Nc1ccn(C2OC(CO)C(O)C2(F)F)c(=O)n1 (configuration not stated) + Cc1cccc(N(C)C(=O)C2C(O)CCN2c2nc(C)cc(C(F)(F)F)c2C#N)c1"
assay_readout = "viability, T/C"
reported_measurement = "43.2%"

[[record]]
compound = "CC1COCCN1c1cc(-c2ccnn2C)c2ccnc(-c3ccn[nH]3)c2n1 (configuration not stated) + COC1C(OC(N)=O)C(O)C(Oc2ccc3c(O)c(NC(=O)c4ccc(O)c(CC=C(C)C)c4)c(=O)oc3c2C)OC1(C)C"
assay_readout = "viability, T/C"
reported_measurement = "38.1%"

[[record]]
compound = "C#Cc1c(F)ccc2cc(O)cc(-c3ncc4c(N5CC6CCC(C5)N6)nc(OCC56CCCN5CC(F)C6)nc4c3F)c12 (configuration not stated) + COC1C(OC(N)=O)C(O)C(Oc2ccc3c(O)c(NC(=O)c4ccc(O)c(CC=C(C)C)c4)c(=O)oc3c2C)OC1(C)C"
assay_readout = "viability, T/C"
reported_measurement = "109%"

[[record]]
compound = "C=CC(=O)N1CCN(c2nc(=O)n(-c3c(C)ccnc3C(C)C)c3nc(-c4c(O)cccc4F)c(F)cc23)C(C)C1 (configuration not stated) + COC1C(OC(N)=O)C(O)C(Oc2ccc3c(O)c(NC(=O)c4ccc(O)c(CC=C(C)C)c4)c(=O)oc3c2C)OC1(C)C"
assay_readout = "viability, T/C"
reported_measurement = "101%"

[[record]]
compound = "CCCS(=O)(=O)Nc1ccc(F)c(C(=O)c2c[nH]c3ncc(-c4ccc(Cl)cc4)cc23)c1F + Nc1ccc(C#CCN(C(=O)Cc2ncc(C(F)(F)F)cc2C(F)(F)F)c2ccc(F)cc2)nn1"
assay_readout = "viability, T/C"
reported_measurement = "77.5%"

[[record]]
compound = "CC1COCCN1c1cc(C2(O)CC3CCC(C2)O3)c2cnn(-c3ccn[nH]3)c2n1 (configuration not stated) + COC1C(OC(N)=O)C(O)C(Oc2ccc3c(O)c(NC(=O)c4ccc(O)c(CC=C(C)C)c4)c(=O)oc3c2C)OC1(C)C"
assay_readout = "viability, T/C"
reported_measurement = "22.5%"

[[record]]
compound = "O=C(Nc1ccc(O)c(NS(=O)(=O)c2ccc(F)cc2)c1)c1ccc(-c2ccccc2)cc1 + Cc1cccc(N(C)C(=O)C2C(O)CCN2c2nc(C)cc(C(F)(F)F)c2C#N)c1"
assay_readout = "viability, T/C"
reported_measurement = "84.8%"

[[record]]
compound = "CNCc1ccc(-c2[nH]c3cc(F)cc4c3c2CCNC4=O)cc1 + Cc1cccc(N(C)C(=O)C2C(O)CCN2c2nc(C)cc(C(F)(F)F)c2C#N)c1"
assay_readout = "viability, T/C"
reported_measurement = "77.3%"

[[record]]
compound = "O=C(Nc1ccc(O)c(NS(=O)(=O)c2ccc(F)cc2)c1)c1ccc(-c2ccccc2)cc1 + Nc1ccc(C#CCN(C(=O)Cc2ncc(C(F)(F)F)cc2C(F)(F)F)c2ccc(F)cc2)nn1"
assay_readout = "viability, T/C"
reported_measurement = "96.3%"

[[record]]
compound = "Nc1ccn(C2OC(CO)C(O)C2(F)F)c(=O)n1 (configuration not stated) + COC1C(OC(N)=O)C(O)C(Oc2ccc3c(O)c(NC(=O)c4ccc(O)c(CC=C(C)C)c4)c(=O)oc3c2C)OC1(C)C"
assay_readout = "viability, T/C"
reported_measurement = "36.9%"

[[record]]
compound = "COc1cc(C2c3cc4c(cc3C(OC3OC5COC(C)OC5C(O)C3O)C3COC(=O)C23)OCO4)cc(OC)c1O (configuration not stated) + COC1C(OC(N)=O)C(O)C(Oc2ccc3c(O)c(NC(=O)c4ccc(O)c(CC=C(C)C)c4)c(=O)oc3c2C)OC1(C)C"
assay_readout = "viability, T/C"
reported_measurement = "60.7%"

[[record]]
compound = "CCc1cc2c(N3CCc4c(cc(Cn5ccnc5)cc4-c4cn(C)nc4C(F)(F)F)C3=O)cc(C)nc2c(OC)n1 + Nc1ccc(C#CCN(C(=O)Cc2ncc(C(F)(F)F)cc2C(F)(F)F)c2ccc(F)cc2)nn1"
assay_readout = "viability, T/C"
reported_measurement = "76.8%"

[[record]]
compound = "O=C(c1cc(Cc2n[nH]c(=O)c3ccccc23)ccc1F)N1CCN(C(=O)C2CC2)CC1 + COC1C(OC(N)=O)C(O)C(Oc2ccc3c(O)c(NC(=O)c4ccc(O)c(CC=C(C)C)c4)c(=O)oc3c2C)OC1(C)C"
assay_readout = "viability, T/C"
reported_measurement = "80.7%"

[[record]]
compound = "CC1COCCN1c1cc(C2(O)CC3CCC(C2)O3)c2cnn(-c3ccn[nH]3)c2n1 (configuration not stated) + Cc1cccc(N(C)C(=O)C2C(O)CCN2c2nc(C)cc(C(F)(F)F)c2C#N)c1"
assay_readout = "viability, T/C"
reported_measurement = "34%"

[[record]]
compound = "Nc1ccn(C2OC(CO)C(O)C2(F)F)c(=O)n1 (configuration not stated) + Nc1ccc(C#CCN(C(=O)Cc2ncc(C(F)(F)F)cc2C(F)(F)F)c2ccc(F)cc2)nn1"
assay_readout = "viability, T/C"
reported_measurement = "38.9%"


----------
The following molecules are shown together with reported viability, T/C values.
System: 843126-344-R-J1-PDC complex spheroid viability
Assay: Anticancer human tumor 843126-344-R-J1-PDC cell line growth inhibition [POLQ];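 on viability, T/C: spheroids exposed to drugs for seven days before readout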
Conditions: second compound 0.316 µM; first compound 0.000316 µM; stronger effect = lower value
ASSAY_READOUT: viability, T/C (%)

[[record]]
molecule = "Cn1ncnc1[C@H]1c2n[nH]c(=O)c3cc(F)cc(c23)N[C@@H]1c1ccc(F)cc1 + Cc1cccc(N(C)C(=O)C2C(O)CCN2c2nc(C)cc(C(F)(F)F)c2C#N)c1"
assay_readout = "viability, T/C"
unit_info = "%"
reported_measurement = 82.8

[[record]]
molecule = "CC[C@@]1(O)C(=O)OCc2c1cc1n(c2=O)Cc2cc3c(CN(C)C)c(O)ccc3nc2-1 + Nc1ccc(C#CCN(C(=O)Cc2ncc(C(F)(F)F)cc2C(F)(F)F)c2ccc(F)cc2)nn1"
assay_readout = "viability, T/C"
unit_info = "%"
reported_measurement = 96.4

[[record]]
molecule = "Cn1ncnc1[C@H]1c2n[nH]c(=O)c3cc(F)cc(c23)N[C@@H]1c1ccc(F)cc1 + COC1C(OC(N)=O)C(O)C(Oc2ccc3c(O)c(NC(=O)c4ccc(O)c(CC=C(C)C)c4)c(=O)oc3c2C)OC1(C)C"
assay_readout = "viability, T/C"
unit_info = "%"
reported_measurement = 90.1

